# credit: PubChem BioAssay AID1159580

procedure.summary: chemical genetic growth profiling, strain panel (AID 1159580);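 also: tested at 20 µM; growth read once vehicle control cultures reached saturation at 30 °C; 1 = growth at the plate median or of vehicle wells; lower values mean less growth of the strain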
experimental.setup: S. cerevisiae deletion strains, growth OD, locus YFL009W, strain cdc4, hits give low values
The campaign covered roughly 5,500 compounds. About 2,000 (36%) were called active. Not shown: some 18% with an inconclusive outcome. Some of the results follow.
property.name: normalized growth
Write the number on its own, no unit after it.

Cc1cc2nc3c(Cl)c(O)c4ccccc4c3nc2cc1C :: 0.969

## Task Look at this compound and give its reported normalized growth. COc1cc(C2CC(=S)Nc3ccccc3S2)cc(OC)c1OC (stereo not drawn)
## Result 0.988

## Task Look at this compound and give its reported normalized growth. `O=C(Nc1ccccc1Sc1ccc(C(F)(F)F)cc1[N+](=O)[O-])C(Cl)Cl`
## Result 0.995
